Tested on: PD-L1 expression in A549 cells
assay_remarks: PD-L1 expression in A549 cells by flow cytometry
Format: cell-based, human
condition_parameters: Homo sapiens; A549 cells, 48 hours; unit inferred; read-out: IC50 inhibition of PD-L1 expression

{"compound": "N#Cc1c2c(c(Nc3ccccc3)n3c1nc1ccccc13)CCCC2 [USP22i-S02]", "IC50": "13.7 µM"}
